Target: adrenergic α1A receptor (Homo sapiens)
Sequence (P35348 whole entry): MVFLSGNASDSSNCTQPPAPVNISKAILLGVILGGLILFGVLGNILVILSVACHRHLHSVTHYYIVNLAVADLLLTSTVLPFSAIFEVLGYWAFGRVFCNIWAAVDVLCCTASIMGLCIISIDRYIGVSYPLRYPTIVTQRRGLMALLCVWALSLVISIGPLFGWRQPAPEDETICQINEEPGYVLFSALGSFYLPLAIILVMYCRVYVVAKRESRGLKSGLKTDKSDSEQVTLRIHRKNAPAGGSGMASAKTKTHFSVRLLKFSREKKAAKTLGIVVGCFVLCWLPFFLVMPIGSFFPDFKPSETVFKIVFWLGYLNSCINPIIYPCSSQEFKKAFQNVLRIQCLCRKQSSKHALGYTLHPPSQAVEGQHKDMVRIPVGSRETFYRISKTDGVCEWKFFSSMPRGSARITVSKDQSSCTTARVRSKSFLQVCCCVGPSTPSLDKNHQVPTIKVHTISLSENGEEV
Experiment: Receptor binding, [3H]-prazosin
measurement-name: Ki (nM)
Answers are plain numbers, in nM.

IN: Which value of Ki has been reported for Cc1ccc(C(=O)C(C)N2CCCC2)cc1 (stereo not drawn) [4-MePPP, 4-methyl-α-pyrrolidinopropiophenone] in the records?
OUT: 2200

---

Biological target: human dopamine (hDAT) uptake transporter (Homo sapiens)
Construct: expressed in transfected cells; host or cells: HEK293
Sequence (Q01959 whole entry): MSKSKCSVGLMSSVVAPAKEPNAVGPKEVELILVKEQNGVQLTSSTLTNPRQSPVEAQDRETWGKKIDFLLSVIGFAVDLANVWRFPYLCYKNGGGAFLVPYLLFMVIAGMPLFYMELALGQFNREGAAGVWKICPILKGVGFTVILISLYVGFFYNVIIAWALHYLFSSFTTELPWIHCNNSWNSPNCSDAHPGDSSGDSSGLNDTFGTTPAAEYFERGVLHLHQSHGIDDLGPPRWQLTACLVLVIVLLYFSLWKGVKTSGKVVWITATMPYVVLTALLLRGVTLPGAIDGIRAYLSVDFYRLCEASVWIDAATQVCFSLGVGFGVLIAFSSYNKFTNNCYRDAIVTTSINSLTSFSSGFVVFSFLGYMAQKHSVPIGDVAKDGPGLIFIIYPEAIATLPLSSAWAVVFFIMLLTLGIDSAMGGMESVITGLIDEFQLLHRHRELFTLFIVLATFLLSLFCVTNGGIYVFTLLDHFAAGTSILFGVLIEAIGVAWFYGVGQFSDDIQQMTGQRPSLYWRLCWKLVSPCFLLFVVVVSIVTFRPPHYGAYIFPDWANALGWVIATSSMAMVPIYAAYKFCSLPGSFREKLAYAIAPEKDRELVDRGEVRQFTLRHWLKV
Test: Monoamine uptake inhibition, dopamine uptake in transfected HEK293 cells
Format: cell-based
Conditions: (1/DAT IC50):(1/SERT IC50)
measurement-name: DAT/SERT Ratio (95% CI)

> print(dat)
                                   compound                                    system  value.reported
1  COc1ccc(C(=O)C(C)N2CCCC2)cc1 (stereo not shown)  human dopamine (hDAT) uptake transporter (Homo sapiens)     20 (4.0–40)
2  CC(C(=O)c1ccccc1)N1CCCC1 (stereo not shown)  human dopamine (hDAT) uptake transporter (Homo sapiens)           >1000
3  CCCC(C(=O)c1ccccc1)N1CCCC1 (stereo not shown)  human dopamine (hDAT) uptake transporter (Homo sapiens)           >1000

Now let's try a different one.
IN: Which value of DAT/SERT Ratio (95% CI) has been reported for CCCCC(C(=O)c1ccccc1)N1CCCC1 (stereo not shown) in the records?
OUT: >1000
